System: G-clamp-N3 (biotin conjugate)
Test: pull-down binding Z-score (relative to library population); higher = stronger binding
Details: RNA library: Library-1 (pre-miRNA loops + repeats)
Categorized via pull-down binding Z-score: 0 (below -0.6), 1 (-0.6 to below -0.09), 2 (-0.09 or more)

Bin this entry: GACUGGACAACAUGAUGAGCCCAAACCAAUC [hsa-mir-5092]
0

Dear colleague, I would appreciate it if you could identify the bin for AAGUGCCGUCCUCAUGAGCCCCU [hsa-mir-6769b] and reply at your convenience.
0

Hey, which category is GGGCAGGGAGGGCAGGGCAGGCUCUGGGGUGGGGGGUCUGUGAGUCAGCCACGGCUC [hsa-mir-4516] in, do you know?
2

Where would AGCUUCUACGUCAUUCAGCACUUGCU [hsa-mir-5706] land among the classes by reported pull-down binding Z-score?
0

Pick a category. Item: GGGGGUGGCCGGGGCUGACCCU [hsa-mir-939]
2

The entry to classify is GGCGCACAGCAGACCCUGCAAUCAUGCC [hsa-mir-3164] ; which class holds it?
2

Assign a category based on measured pull-down binding Z-score for UUUUGAAAGUAACUUGGCGAAA [hsa-mir-548ad] and give only the class name.
2

Class label required: AAGUGGAGCAGGAAUGCGCUUUUCUCCACUG [hsa-mir-5187]
2

Assign a bin to AGUGCUAGGACACU [hsa-mir-374c]
1

# bin label for AGGACGGUGCGCCUUGUUUCCC [hsa-mir-3132]
0

Which bin should I file AGUGAGGCGUCGGCUGUGUUUCU [hsa-mir-2110] under?
1

Which bin should I file GUGUAUGGGCUGAGCCUUGC [hsa-mir-6805] under?
2

Category of UGGGGUUGGGGUUGGGGUUGGGGUUGGGGUUGGGGU [G4_(UGGGGU)6] , please.
2

For GGGCGGAACACCCAGCCCC [hsa-mir-4417] , which pull-down binding Z-score bin applies?
0

Lab note: which band did GACGAUUUGAAUUAAUAAAUUC [hsa-mir-579] land in?
2

For the record UGUGGUCACCCACUCU [hsa-mir-4316] , report the class its pull-down binding Z-score corresponds to.
0

Textbook exercise: identify the category of the sequence given here, UGGAGCCAGGGGGCCCAGGUCUACAGCUUCUCCCCGCUCCC [hsa-mir-6752] , according to its measured value.
1

Band of UGGGUUGUGUCAGUGUCAGACCUC [hsa-mir-146a] ?
1

Hello team, could you let me know which band the following sequence falls into: CGUUGAGUGGGCACCCGAGAAGCCAUCG [hsa-mir-425]
0

Categorize the following entry: UUCUCGAGUCUAUGGCUCCGGCCGAGAG [hsa-mir-219a-1]
1

Which pull-down binding Z-score category applies to GGUGGUUGUGGGAGUCACU [hsa-mir-4418] here?
1

Note: place this sequence into its band. Item: UUUUAUCAUUACUUUUAAUGGCAAAA [hsa-mir-548f-2]
2

Bin this entry: GCAAUCAGGACUGGGUCAUUC [hsa-mir-6873]
0

Place this sequence in its band: UGUAUUUUUCAGCAAGGCAAGGGCUUUGAUGUCUUGUA [hsa-mir-8065]
1

Pick a category. Item: GCUGGUGACAUUGCUAAUUCAUUUCACACCAGC [hsa-mir-4293]
0

Exercise: read the entry CCAUUAUUUUUAAUAAUUAUAAUAAUGG [hsa-mir-548s] and state which class it falls under.
2

# bin lookup: classify CAGUGGGGACAUG [hsa-mir-4531] by its pull-down binding Z-score
1

Determine which band this sequence sits in: UGUCAUUACUUUUAACUGUA [hsa-mir-548h-5]
0

Each sequence maps to one class by pull-down binding Z-score. Which class for GGAUAGAAACUAUUAUUCUAUUC [hsa-mir-664a] ?
0

GET /class?item= AUGGUUAAUGUUCCACAGCCA [hsa-mir-5190]
0

Class for UGCUGUUGGAGACUCGAUUGUUGGUGACAGCGAAAGAACGAUAACAAA [hsa-mir-3655] ?
0

Assign a bin to GGUUUGCGCCUCAAGAAACC [hsa-mir-1255b-2]
2

For the record UUCUCCUUGGGAAAAACAGAGAA [hsa-mir-605] , report the class its pull-down binding Z-score corresponds to.
1

Classify this sequence: AGCCAAAAUCACCAGGGA [hsa-mir-4534]
2

Place this sequence in its band: GAGUGAAUC [hsa-mir-3610]
1

Place this sequence in its band: GCUGAGCCCUUUGAUAAGGGGGAGGUU [hsa-mir-8080]
1

Lab note: which band did AUAGUUUUAGGGUCAUACCCCAUCUUGGAGAUAACUAU [hsa-let-7f-2] land in?
0

Just checking, what class would you give GUUGGGAUUGAGUUUUGAACUCGGC [hsa-mir-196a-2] here?
2

Kindly identify the class of UGGGUUGGGUUGGGUUGGGUUGGGUUGGGU [G4_(UGGGU)6] .
2

Class? Entry: AAAGAGGUGUUUCUACUCCAU [hsa-mir-3690-1_3690-2]
0

Where would UUCGCAUUAUUUAAUGAUGCCCA [hsa-mir-323b] land among the classes by reported pull-down binding Z-score?
0

Lab log: CAGUCCUGAGAUGCAGGGACUG [hsa-mir-4799] — assign pull-down binding Z-score category
2

----------
Test system: TO-3-N3 (biotin conjugate)
Assay: pull-down binding Z-score (relative to library population); higher = stronger binding
Conditions: RNA library: Library-2
Binary call on pull-down binding Z-score: 1 from -0.5 upward, 0 beneath that.

Reported pull-down binding Z-score reaches at least -0.5 for AACACCAGUUUACUCAUUCUUACCUGGUGUU ?
0

Hello, I need to know if CCAUUUCAUCUUUUAAAUGG has measured pull-down binding Z-score not below -0.5. Thanks!
0

Check this sequence for pull-down binding Z-score at or above -0.5: GUGAGAGAUGCUUCUAGAUCCAGGAGGCAGACCUCAA [hsa-mir-4325]
1

Dear colleague, could you confirm whether UAUAACUUGAAGAAUUCAAAUAGUCAUG [hsa-mir-3146] has pull-down binding Z-score at or above -0.5?
0

Confirm if pull-down binding Z-score reported for the sequence CUGUUUUUCAG is -0.5 or above.
0

Given the entry GGAUGAAAGUCAAAGAAUCC [hsa-mir-1262] , answer whether its pull-down binding Z-score meets or surpasses -0.5.
1

Reported pull-down binding Z-score at or above -0.5? AUCUACAAUGAU [DMSMaPseq_invitro_SARS-CoV-2_Motif_243]
0

Dear colleague, could you confirm whether ACUUUCACCAGAGAGCAGAAAGU [hsa-mir-371b] has pull-down binding Z-score at or above -0.5?
1

# check: pull-down binding Z-score of GUUACGACUAUUGUAUACCUUACAAUAGUGUAAC is greater than or equal to -0.5
1

Given the entry GCUAUCUAACCUUAACUUGCCUGGUUGUGAUGGU [SHAPE_invivo_SARS-CoV-2_Motif_361] , answer whether its pull-down binding Z-score meets or surpasses -0.5.
1

Threshold query (pull-down binding Z-score >= -0.5) on UGUGGAAAGGGCUAUCAUCUUAUGUCCUUCCCUCA [DMSMaPseq_invitro_SARS-CoV-2_Motif_440]
1

Kindly determine if pull-down binding Z-score recorded for CUGAACUGGGCUGGGUUGAGCUGGGCUGGGCUGAGUUGAG [hsa-mir-4538] is above or exactly -0.5.
1

Please indicate if the recorded pull-down binding Z-score for GUUUGGCAGGACAGUUUCCAAGC [hsa-mir-6779] meets or exceeds -0.5.
0

Confirm if pull-down binding Z-score reported for the sequence CAAGUUAUCACUGAGCGACUUC [hsa-mir-4664] is -0.5 or above.
1

Say whether CUCAGCCUGGAAAAAGCUGAG [hsa-mir-4765] shows pull-down binding Z-score of -0.5 or more.
1

# bool: pull-down binding Z-score of GUGGUUGACCUACACAGGUGCCAU >= -0.5
0

Record UUCUUUGAGGAUCUGGCCUAAAGAG [hsa-mir-202] ; criterion: pull-down binding Z-score no lower than -0.5. Met?
1

Dear colleague, could you confirm whether UCACAAUUGCGCUACAGAACUGUUGA [hsa-mir-203b] has pull-down binding Z-score at or above -0.5?
1

Check if pull-down binding Z-score >= -0.5 (inclusive). Item: GUUGUCUUUGAUGAAAUUUCAAUGGCCAC [DMSMaPseq_invitro_SARS-CoV-2_Motif_310]
0

Please tell me: is the sequence ACUUUUUUUUUUUUUUUUUUUAAUGUUAAAAGU [hsa-mir-5588] at or over -0.5 in terms of pull-down binding Z-score?
1

Item CAUGUUAAGUGUUGUCCUACAG [hsa-mir-5087] with pull-down binding Z-score of -0.5 or above?
1

Does pull-down binding Z-score meet or surpass -0.5 for GGGUCGUGGGAAAGUGUUGACCC [hsa-mir-4655] ?
1
